# assayedTarget: TRPA1 channels (Homo sapiens)
# Sequence (O75762 whole entry): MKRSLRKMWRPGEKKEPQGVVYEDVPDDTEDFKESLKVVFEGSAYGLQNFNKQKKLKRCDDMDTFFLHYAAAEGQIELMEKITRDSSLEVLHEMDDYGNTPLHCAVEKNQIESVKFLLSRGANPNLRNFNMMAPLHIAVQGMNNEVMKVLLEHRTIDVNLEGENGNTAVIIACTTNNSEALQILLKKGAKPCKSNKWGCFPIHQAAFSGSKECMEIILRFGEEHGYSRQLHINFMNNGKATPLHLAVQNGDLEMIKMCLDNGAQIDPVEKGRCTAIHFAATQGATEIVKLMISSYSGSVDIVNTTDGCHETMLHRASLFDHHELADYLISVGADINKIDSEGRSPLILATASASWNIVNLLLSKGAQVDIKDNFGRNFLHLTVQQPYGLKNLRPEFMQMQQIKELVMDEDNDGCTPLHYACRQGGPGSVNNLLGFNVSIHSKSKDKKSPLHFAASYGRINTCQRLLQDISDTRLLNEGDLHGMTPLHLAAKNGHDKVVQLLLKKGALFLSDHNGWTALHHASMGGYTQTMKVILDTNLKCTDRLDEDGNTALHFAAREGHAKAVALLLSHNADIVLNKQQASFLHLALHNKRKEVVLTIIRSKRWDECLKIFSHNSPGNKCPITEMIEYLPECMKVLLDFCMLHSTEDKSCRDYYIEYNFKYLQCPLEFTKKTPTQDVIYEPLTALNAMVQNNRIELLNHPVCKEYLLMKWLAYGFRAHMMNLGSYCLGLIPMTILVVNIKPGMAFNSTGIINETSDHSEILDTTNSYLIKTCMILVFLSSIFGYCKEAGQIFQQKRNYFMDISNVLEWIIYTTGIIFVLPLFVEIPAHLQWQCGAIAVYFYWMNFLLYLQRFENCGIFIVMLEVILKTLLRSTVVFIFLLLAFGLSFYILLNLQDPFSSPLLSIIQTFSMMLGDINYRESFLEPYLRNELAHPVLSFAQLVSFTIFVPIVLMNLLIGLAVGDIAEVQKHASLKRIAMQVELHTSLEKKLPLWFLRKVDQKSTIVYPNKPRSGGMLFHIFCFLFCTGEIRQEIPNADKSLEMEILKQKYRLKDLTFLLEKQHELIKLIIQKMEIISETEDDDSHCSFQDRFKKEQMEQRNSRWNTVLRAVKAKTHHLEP
# measurementNotes: TRP Family FLIPR Assay, TRPA1
# conditionContext: agonist mode; vs EMAX of mustard oil 600 μM; CHO cells; read-out: EC50 hTRPA1
pEC50: −log10 of the molar value.
readoutType: pEC50

Lookup: State the recorded pEC50 for this entry: CC(C)(O)c1cnc(N2C[C@@]3(CC[C@@H](F)[C@](C)(Cn4cnc5ccc(C#N)cc54)C3)OC2=O)cn1 (single isomer, unassigned)
Found: < 5.00

====

# System: Hepatocytes
# measurementNotes: Hepatocytes predicted clearance, human
readoutType: Hepatocytes predicted clearance in human (L/h/kg)
Give bare numbers, in L/h/kg.

- CC(C)(C)CN1C[C@@]2(CCC(F)(F)[C@H](Cn3cnc4ccc(C#N)cc43)C2)OC1=O (single isomer, unassigned): 1.04
- C=C1CC[C@@]2(CN(c3cnc(C(C)(C)O)cn3)C(=O)O2)C[C@@]1(C)Cn1cnc2ccc(C#N)cc21 (single isomer, unassigned): 0.33
- N#Cc1ccc2ncn(C[C@@H]3C[C@@]4(CCC3(F)F)CN(c3ccccc3Cl)C(=O)O4)c2c1 (single isomer, unassigned): 0.45

Lookup: Can you share its Hepatocytes predicted clearance in human? I mean this molecule: CC(C)(O)c1cnc(N2C[C@@]3(CCC4(CC4)[C@](C)(Cn4cnc5ccc(C#N)cc54)C3)OC2=O)cn1 (single isomer, unassigned)
Found: 0.39
